# TARGET_OR_SYSTEM: recombinant human IL-6 (human, UniProt P05231 30-212)
# Sequence (P05231 30-212 limits assumed): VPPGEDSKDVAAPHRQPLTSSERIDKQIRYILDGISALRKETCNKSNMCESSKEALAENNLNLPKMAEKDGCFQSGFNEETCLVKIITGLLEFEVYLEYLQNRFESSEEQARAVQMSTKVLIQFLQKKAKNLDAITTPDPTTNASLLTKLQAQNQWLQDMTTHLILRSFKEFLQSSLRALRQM
# EXPERIMENT_DESCRIPTION: SPR, IL-6 on CM5 chip, Fab lysate, 25 C
# Method: Three ranges of antigen density (100-150 RU, 300-400 RU, 400-600 RU) were obtained by using variable flow times for each chip channel, later blocked with ethanolamine. Supernatants of the 96-well filtered culture lysates were injected at 50 μL/min for 120 seconds. Fitting of dissociation curves (300 seconds) to single exponential decay curve was used for the determination of dissociation rates (koff). […]
Catalogue of koff values
Field format: number, assumed s⁻¹, no unit text.

Name the recorded koff for anti-IL-6 Fab, light chain S55P (Fab, V domains shown, see m39) VH: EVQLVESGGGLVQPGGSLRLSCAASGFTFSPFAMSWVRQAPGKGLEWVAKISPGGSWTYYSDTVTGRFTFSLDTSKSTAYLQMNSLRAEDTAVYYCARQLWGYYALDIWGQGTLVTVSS VL: DIQLTQSPSSLSASVGDRVTITCSASISVSYMYWYQQKPGKAPKLLIYDMSNLAPGVPSRFSGSGSGTDFTLTISSLQPEDFATYYCMQWSGYPYTFGQGTKVEIK . 0.0052

Name the recorded koff for anti-IL-6 Fab, heavy chain S30Y (Fab, V domains shown, see m39) VH: EVQLVESGGGLVQPGGSLRLSCAASGFTFYPFAMSWVRQAPGKGLEWVAKISPGGSWTYYSDTVTGRFTFSLDTSKSTAYLQMNSLRAEDTAVYYCARQLWGYYALDIWGQGTLVTVSS VL: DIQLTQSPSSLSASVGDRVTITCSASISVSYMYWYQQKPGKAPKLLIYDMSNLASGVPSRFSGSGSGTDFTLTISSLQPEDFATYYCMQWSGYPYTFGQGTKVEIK . 0.00352

Name the recorded koff for anti-IL-6 Fab, heavy chain T65L (Fab, V domains shown, see m39) VH: EVQLVESGGGLVQPGGSLRLSCAASGFTFSPFAMSWVRQAPGKGLEWVAKISPGGSWTYYSDTVLGRFTFSLDTSKSTAYLQMNSLRAEDTAVYYCARQLWGYYALDIWGQGTLVTVSS VL: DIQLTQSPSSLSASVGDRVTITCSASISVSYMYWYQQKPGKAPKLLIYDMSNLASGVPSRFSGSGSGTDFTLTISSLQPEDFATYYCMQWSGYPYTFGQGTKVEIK . 0.00592

Name the recorded koff for anti-IL-6 Fab, light chain S28E (Fab, V domains shown, see m39) VH: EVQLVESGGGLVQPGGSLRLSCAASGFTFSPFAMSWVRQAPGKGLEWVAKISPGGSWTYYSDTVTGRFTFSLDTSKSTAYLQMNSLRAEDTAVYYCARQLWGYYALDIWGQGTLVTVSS VL: DIQLTQSPSSLSASVGDRVTITCSASIEVSYMYWYQQKPGKAPKLLIYDMSNLASGVPSRFSGSGSGTDFTLTISSLQPEDFATYYCMQWSGYPYTFGQGTKVEIK . 0.00451

Name the recorded koff for anti-IL-6 Fab, heavy chain V48Q (Fab, V domains shown, see m39) VH: EVQLVESGGGLVQPGGSLRLSCAASGFTFSPFAMSWVRQAPGKGLEWQAKISPGGSWTYYSDTVTGRFTFSLDTSKSTAYLQMNSLRAEDTAVYYCARQLWGYYALDIWGQGTLVTVSS VL: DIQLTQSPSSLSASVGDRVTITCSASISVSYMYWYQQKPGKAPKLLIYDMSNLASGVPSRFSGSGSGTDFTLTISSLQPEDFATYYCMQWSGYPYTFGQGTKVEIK . 0.0034
